Task for the reader: assign each of the following molecules its reported combination Emax.
- System: HCC-827 (Lung Adenocarcinoma)
- Assay comment: combination Emax (second highest fraction inhibited in the dose matrix, 72 h); higher = more inhibition; extreme values may be limits of the assay
One number for each entry.

Previously resolved entries follow.
Molecule	Parameter	Value reported
CN(C)CCCOc1ccc(-c2ccc3ncc4c(c3c2)n(C2CCOCC2)c(=O)n4C)cn1 [AZD0156] + CCN(CCO)CCCOc1ccc2c(Nc3cc(CC(=O)Nc4cccc(F)c4)[nH]n3)ncnc2c1 [AZD2811] (first compound max 1 µM, 7x7, partner max 1 µM)	combination Emax	0.143
CC1(C)CCC(CN2CCN(c3ccc(C(=O)NS(=O)(=O)c4ccc(NCC5CCOCC5)c([N+](=O)[O-])c4)c(Oc4cnc5[nH]ccc5c4)c3)CC2)=C(c2ccc(Cl)cc2)C1 [Venetoclax] + CCN(CCO)CCCOc1ccc2c(Nc3cc(CC(=O)Nc4cccc(F)c4)[nH]n3)ncnc2c1 [AZD2811] (first compound max 1 µM, 7x7, partner max 1 µM)	combination Emax	0.254

Kindly review the next molecule as well.
[ask] May I ask what combination Emax has been recorded for C[C@@H](c1ccc2nccn2c1)n1nnc2ncc(-c3cnn(C)c3)nc21 [Savolitinib] + Cc1c2c(nn1C)CSCc1cc(n(C)n1)CSc1cc(c3ccccc3c1)OCCCc1c(C(=O)O)n(C)c3c-2c(Cl)ccc13 [AZD5991] (first compound max 1 µM, 7x7, partner max 1 µM) ?
[reply] 0.283

---

- Test system: MEG-01 (Chronic Myelogenous Leukemia)
- Assay comment: Bliss excess, mean over the matrix (fraction); higher = more synergy
Task for the reader: assign each of the following compounds its reported Bliss excess.
One number for each entry.

Compound	Bliss excess
CCN(CCO)CCCOc1ccc2c(Nc3cc(CC(=O)Nc4cccc(F)c4)[nH]n3)ncnc2c1 [AZD2811] + C[C@@H]1COCCN1C2=NC(=NC(=C2)C3(CC3)[S@](=N)(=O)C)C4=C5C=CNC5=NC=C4 [AZD6738] (first compound max 1 µM, 7x7, partner max 10 µM)	-0.0203
NC1(C(=O)N[C@@H](CCO)c2ccc(Cl)cc2)CCN(c2ncnc3[nH]ccc23)CC1 [Capivasertib] + Cn1cnc2c(F)c(Nc3ccc(Br)cc3Cl)c(C(=O)NOCCO)cc21 [Selumetinib] (first compound max 10 µM, 7x7, partner max 10 µM)	0.0548
COc1cccc2c1C(=O)c1c(O)c3c(c(O)c1C2=O)C[C@@](O)(C(=O)CO)C[C@@H]3O[C@H]1C[C@H](N)[C@H](O)[C@H](C)O1 [Doxorubicin] + Cc1cc2ncnn2cc1Nc1ncc2c(n1)n(C1CCOCC1)c(=O)n2C [AZD7648] (first compound max 1 µM, 7x7, partner max 10 µM)	0.0698

Each compound below has a reported value. Please supply its Bliss excess.
1. CS(=O)(=O)CCNCc1ccc(-c2ccc3ncnc(Nc4ccc(OCc5cccc(F)c5)c(Cl)c4)c3c2)o1 [Lapatinib] + C[C@@H](Oc1cc(-c2cnn(C3CCNCC3)c2)cnc1N)c1c(Cl)ccc(F)c1Cl [Crizotinib] (first compound max 10 µM, 7x7, partner max 10 µM)
2. O=C(c1cc(Cc2n[nH]c(=O)c3ccccc23)ccc1F)N1CCN(C(=O)C2CC2)CC1 [Olaparib] + Cc1c2c(nn1C)CSCc1cc(n(C)n1)CSc1cc(c3ccccc3c1)OCCCc1c(C(=O)O)n(C)c3c-2c(Cl)ccc13 [AZD5991] (first compound max 10 µM, 7x7, partner max 1 µM)
3. COc1cccc(OCCCN)c1-c1cc(Nc2cnc(C#N)cn2)n[nH]1 [Prexasertib] + Cc1cc2ncnn2cc1Nc1ncc2c(n1)n(C1CCOCC1)c(=O)n2C [AZD7648] (first compound max 1 µM, 7x7, partner max 10 µM)
4. Cc1c2c(nn1C)CSCc1cc(n(C)n1)CSc1cc(c3ccccc3c1)OCCCc1c(C(=O)O)n(C)c3c-2c(Cl)ccc13 [AZD5991] + C=CCn1c(=O)c2cnc(Nc3ccc(N4CCN(C)CC4)cc3)nc2n1-c1cccc(C(C)(C)O)n1 [AZD1775] (first compound max 1 µM, partner max 1 µM)

[reply]
1: -0.0083; 2: -0.0416; 3: -0.0363; 4: -0.0401

---

- Test system: HLE (Hepatocellular Carcinoma)
- Assay comment: Bliss excess, mean over the matrix (fraction); higher = more synergy
Parameter: Bliss excess
One number for each entry.

Compound	Bliss excess
CC(=O)c1c(C)c2cnc(Nc3ccc(N4CCNCC4)cn3)nc2n(C2CCCC2)c1=O [Palbociclib] + Cc1c2c(nn1C)CSCc1cc(n(C)n1)CSc1cc(c3ccccc3c1)OCCCc1c(C(=O)O)n(C)c3c-2c(Cl)ccc13 [AZD5991] (first compound max 10 µM, 7x7, partner max 1 µM)	-0.0339

Kindly review the next compound as well.
[ask] May I ask what Bliss excess has been recorded for C[C@@H](c1ccc2nccn2c1)n1nnc2ncc(-c3cnn(C)c3)nc21 [Savolitinib] + CC1(C)CCC(CN2CCN(c3ccc(C(=O)NS(=O)(=O)c4ccc(NCC5CCOCC5)c([N+](=O)[O-])c4)c(Oc4cnc5[nH]ccc5c4)c3)CC2)=C(c2ccc(Cl)cc2)C1 [Venetoclax] (first compound max 1 µM, 7x7, partner max 1 µM) ?
[reply] -0.0232

---

- Test system: JHH-6 (Hepatocellular Carcinoma)
- Assay comment: combination Emax (second highest fraction inhibited in the dose matrix, 72 h); higher = more inhibition; extreme values may be limits of the assay
Label criterion not met if combination Emax falls below 0.3; label criterion met in every other case.

See these solved cases before continuing.
Molecule	Measured target	Class label
C[C@@H](c1ccc2nccn2c1)n1nnc2ncc(-c3cnn(C)c3)nc21 [Savolitinib] + CC1(C)CCC(CN2CCN(c3ccc(C(=O)NS(=O)(=O)c4ccc(NCC5CCOCC5)c([N+](=O)[O-])c4)c(Oc4cnc5[nH]ccc5c4)c3)CC2)=C(c2ccc(Cl)cc2)C1 [Venetoclax] (first compound max 1 µM, 7x7, partner max 1 µM)	JHH-6 (Hepatocellular Carcinoma)	criterion not met
CC1(C)CCC(CN2CCN(c3ccc(C(=O)NS(=O)(=O)c4ccc(NCC5CCOCC5)c([N+](=O)[O-])c4)c(Oc4cnc5[nH]ccc5c4)c3)CC2)=C(c2ccc(Cl)cc2)C1 [Venetoclax] + C[C@@H]1COCCN1C2=NC(=NC(=C2)C3(CC3)[S@](=N)(=O)C)C4=C5C=CNC5=NC=C4 [AZD6738] (first compound max 1 µM, 7x7, partner max 10 µM)	JHH-6 (Hepatocellular Carcinoma)	criterion met
COc1cccc(OCCCN)c1-c1cc(Nc2cnc(C#N)cn2)n[nH]1 [Prexasertib] + C=CCn1c(=O)c2cnc(Nc3ccc(N4CCN(C)CC4)cc3)nc2n1-c1cccc(C(C)(C)O)n1 [AZD1775] (first compound max 1 µM, partner max 1 µM)	JHH-6 (Hepatocellular Carcinoma)	criterion met

[ask] Hello, I need to know if CN(C)CCCOc1ccc(-c2ccc3ncc4c(c3c2)n(C2CCOCC2)c(=O)n4C)cn1 [AZD0156] + CCN(CCO)CCCOc1ccc2c(Nc3cc(CC(=O)Nc4cccc(F)c4)[nH]n3)ncnc2c1 [AZD2811] (first compound max 1 µM, 7x7, partner max 1 µM) has measured combination Emax not below 0.3. Thanks!
[reply] criterion not met

[ask] Hello, I need to know if Cc1c2c(nn1C)CSCc1cc(n(C)n1)CSc1cc(c3ccccc3c1)OCCCc1c(C(=O)O)n(C)c3c-2c(Cl)ccc13 [AZD5991] + Cc1cc2ncnn2cc1Nc1ncc2c(n1)n(C1CCOCC1)c(=O)n2C [AZD7648] (first compound max 1 µM, 7x7, partner max 10 µM) has measured combination Emax not below 0.3. Thanks!
[reply] criterion not met

[ask] Hello, I need to know if CN(CCO)CC[C@H](CSc1ccccc1)Nc1ccc(S(=O)(=O)NC(=O)c2ccc(N3CCC([C@@H](O)c4ccccc4-c4ccc(Cl)cc4)CC3)cc2)cc1S(=O)(=O)C(F)(F)F [AZD4320] + Cn1cnc2c(F)c(Nc3ccc(Br)cc3Cl)c(C(=O)NOCCO)cc21 [Selumetinib] (first compound max 1 µM, 7x7, partner max 3 µM) has measured combination Emax not below 0.3. Thanks!
[reply] criterion met

[ask] Hello, I need to know if CC1(C)CCC(CN2CCN(c3ccc(C(=O)NS(=O)(=O)c4ccc(NCC5CCOCC5)c([N+](=O)[O-])c4)c(Oc4cnc5[nH]ccc5c4)c3)CC2)=C(c2ccc(Cl)cc2)C1 [Venetoclax] + CN(C)CCCOc1ccc(-c2ccc3ncc4c(c3c2)n(C2CCOCC2)c(=O)n4C)cn1 [AZD0156] (first compound max 1 µM, 7x7, partner max 1 µM) has measured combination Emax not below 0.3. Thanks!
[reply] criterion not met

[ask] Hello, I need to know if CN(CCO)CC[C@H](CSc1ccccc1)Nc1ccc(S(=O)(=O)NC(=O)c2ccc(N3CCC([C@@H](O)c4ccccc4-c4ccc(Cl)cc4)CC3)cc2)cc1S(=O)(=O)C(F)(F)F [AZD4320] + Cc1cc2ncnn2cc1Nc1ncc2c(n1)n(C1CCOCC1)c(=O)n2C [AZD7648] (first compound max 1 µM, 7x7, partner max 10 µM) has measured combination Emax not below 0.3. Thanks!
[reply] criterion not met

[ask] Hello, I need to know if CC1(C)CCC(CN2CCN(c3ccc(C(=O)NS(=O)(=O)c4ccc(NCC5CCOCC5)c([N+](=O)[O-])c4)c(Oc4cnc5[nH]ccc5c4)c3)CC2)=C(c2ccc(Cl)cc2)C1 [Venetoclax] + C[C@@H](Nc1cc(F)cc(F)c1)c1cc(C(=O)N(C)C)cc2c(=O)cc(N3CCOCC3)oc12 [AZD8186] (first compound max 1 µM, 7x7, partner max 3 µM) has measured combination Emax not below 0.3. Thanks!
[reply] criterion not met
